The reported measurements were obtained from patent US10294248B2.

// values below are reported IC50
- assay-system: OXA-1 β-lactamase (Class D oxacillinase) (Escherichia coli, UniProt P13661)
- Sequence (P13661 26-276): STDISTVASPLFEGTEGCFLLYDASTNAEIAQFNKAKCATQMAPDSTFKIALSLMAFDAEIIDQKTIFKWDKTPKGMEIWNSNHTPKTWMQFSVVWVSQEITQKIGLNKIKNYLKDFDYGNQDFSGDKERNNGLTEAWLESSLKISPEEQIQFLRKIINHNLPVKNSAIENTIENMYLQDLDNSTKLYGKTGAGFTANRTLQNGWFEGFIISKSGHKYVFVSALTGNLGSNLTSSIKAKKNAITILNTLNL
- measurement-description: β-Lactamase inhibition, OXA-1
- measurement-setup: nitrocefin 100 μM, 486 nm; 15 min preincubation at 37° C., PBS pH 7.4

- molecule: "O=C(CN[C@@H]1CCNC1)N[C@H]1Cc2cccc(C(=O)O)c2OB1O"
  value-reported: "< 100 nM"
- molecule: "N#CCN1CCC(CC(=O)N[C@H]2Cc3cccc(C(=O)O)c3OB2O)CC1"
  value-reported: "100 to 1000 nM"
- molecule: "O=C(COC1CCNCC1)N[C@H]1Cc2cccc(C(=O)O)c2OB1O"
  value-reported: "< 100 nM"

Would you kindly share the measured IC50 for `N[C@@H]1CCCN(CC(=O)N[C@H]2Cc3cccc(C(=O)O)c3OB2O)C1` ?
100 to 1000 nM

Would you kindly share the measured IC50 for `NCCN1CCN(CC(=O)N[C@H]2Cc3cccc(C(=O)O)c3OB2O)CC1` ?
< 100 nM

Would you kindly share the measured IC50 for `N=C(N)NCCN1CCC(CCC(=O)N[C@H]2Cc3cccc(C(=O)O)c3OB2O)CC1` ?
100 to 1000 nM
